The measurements presented in this section are drawn from the supplement of paper PMC10941209.

- Test system: HFF
- Assay text: cell viability relative to DMSO control; higher = less cytotoxic
- Condition context: 1 µM; 72 h
Test readout: cell viability

Examples with their reported cell viability follow.
CCCCCCCCC(CP(=O)(O)C(C)N)C(=O)O (centres undefined)	61.8%
Cc1ccc(Oc2ccccc2-c2csc(N=C3NCCCN3)n2)c(C)c1	68.5%
Cc1ccccc1NC(=O)Nc1cccc([N+](=O)[O-])c1	71.1%

Shifting focus to the molecule that follows.
The molecule listed as CCC[C@H](NC(=O)[C@@H]1[C@H]2CCC[C@H]2CN1C(=O)[C@@H](NC(=O)[C@@H](NC(=O)c1cnccn1)C1CCCCC1)C(C)(C)C)C(=O)C(=O)NC1CC1 has a reported cell viability of 61.8%
